Examples of compounds with documented pIC50 follow.
- assayedTarget: recombinant human arginase 1 (Homo sapiens)
- Sequence (P05089 whole entry): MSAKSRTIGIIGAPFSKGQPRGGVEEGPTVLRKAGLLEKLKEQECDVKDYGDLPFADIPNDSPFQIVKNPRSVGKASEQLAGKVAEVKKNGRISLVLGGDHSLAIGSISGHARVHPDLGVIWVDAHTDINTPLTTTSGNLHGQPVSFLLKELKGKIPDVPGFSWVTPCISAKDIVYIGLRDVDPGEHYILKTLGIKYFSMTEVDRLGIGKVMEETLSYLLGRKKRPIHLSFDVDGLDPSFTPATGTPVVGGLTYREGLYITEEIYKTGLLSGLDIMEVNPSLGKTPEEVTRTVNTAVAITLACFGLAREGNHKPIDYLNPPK
- testMethodNotes: Arginase inhibitory activity test (urea detection), arginase 1
- testConditions: recombinant human arginase 1, L-arginine substrate, 37° C. for 120 min, urea measurement; read-out: Arg 1 enzymatic potency
pIC50: −log10 of the molar value.

Example results:
| compound | assayedTarget | pIC50 |
| --- | --- | --- |
| C[C@H](N)CNS(=O)(=O)N1C[C@H](CCCB(O)O)[C@](N)(C(=O)O)C1 (racemic) | recombinant human arginase 1 (Homo sapiens) | 6.00 to 7.00 |
| NC(=O)CNS(=O)(=O)N1C[C@H](CCCB(O)O)[C@](N)(C(=O)O)C1 (racemic) | recombinant human arginase 1 (Homo sapiens) | 4.00 to 6.00 |
| CCOC(=O)[C@]1(N)CN(S(=O)(=O)NCCN)C[C@@H]1CCCB(O)O (racemic) | recombinant human arginase 1 (Homo sapiens) | 6.00 to 7.00 |

Query :: pIC50 of CNS(=O)(=O)N1C[C@H](CCCB(O)O)[C@](N)(C(=O)O)C1 (racemic) on recombinant human arginase 1 (Homo sapiens)?
Result :: 4.00 to 6.00

Query :: pIC50 of N[C@@H]1CCCCC1NS(=O)(=O)N1C[C@H](CCCB(O)O)[C@](N)(C(=O)O)C1 (mixture of isomers) on recombinant human arginase 1 (Homo sapiens)?
Result :: < 4.00

Query :: pIC50 of CC(C)C(NS(=O)(=O)N1CC(CCCB(O)O)C(N)(C(=O)O)C1)C(=O)O (racemic) on recombinant human arginase 1 (Homo sapiens)?
Result :: 4.00 to 6.00
